# Test system: 922993-354-T-J3-PDC complex spheroid viability;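 also: spheroids exposed to the agents for one week; 100% = DMSO vehicle control wells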
# assay-overview: Anticancer human tumor 922993-354-T-J3-PDC patient-derived endometrial carcinoma cell line growth inhibition [POLQ]
# study-conditions: second compound 0.316 µM; first compound 0.1 µM; stronger effect = lower value
Below, each of the molecules is paired with its reported viability, T/C value.
# output: bare number, implied unit %

molecule="C=CCn1c(=O)c2cnc(Nc3ccc(N4CCN(C)CC4)cc3)nc2n1-c1cccc(C(C)(C)O)n1 + Nc1ccc(C#CCN(C(=O)Cc2ncc(C(F)(F)F)cc2C(F)(F)F)c2ccc(F)cc2)nn1" measurement_type="viability, T/C" obs_value=101

Reported viability, T/C for COc1cc(C2c3cc4c(cc3C(OC3OC5COC(C)OC5C(O)C3O)C3COC(=O)C23)OCO4)cc(OC)c1O (stereo not drawn) + Cc1cccc(N(C)C(=O)C2C(O)CCN2c2nc(C)cc(C(F)(F)F)c2C#N)c1 : what is it?
102

What measured viability, T/C goes with COc1cccc(OCCCN)c1-c1cc(Nc2cnc(C#N)cn2)n[nH]1 + Nc1ccc(C#CCN(C(=O)Cc2ncc(C(F)(F)F)cc2C(F)(F)F)c2ccc(F)cc2)nn1 ?
99.7
